observation-type: glass transition temperature (°C)

Kindly note the recorded glass transition temperature for *c1ccc(-c2ccc(-n3c(-c4ccc(Oc5ccc(C(=O)c6ccc(C(=O)c7ccc(Oc8ccc(-c9nc%10ccccc%10n9*)cc8)cc7)cc6)cc5)cc4)nc4ccccc43)cc2)cc1 (repeat unit) , which is 259.00

Kindly note the recorded glass transition temperature for *c1ccc(NC2CC(=O)N(c3ccc(Cc4ccc(N5C(=O)CC(Nc6ccc(-c7nc(-c8ccc(/C=C/c9ccc([N+](=O)[O-])cc9)cc8)[nH]c7*)cc6)C5=O)cc4)cc3)C2=O)cc1 (repeat unit) , which is 250.00

Kindly note the recorded glass transition temperature for *c1ccc2c(c1)C(CCCCCCCC)(CCCCCCCC)c1cc(-c3ccc(*)c4nsnc34)ccc1-2 (repeat unit) , which is 113.2

Kindly note the recorded glass transition temperature for *Oc1ccc(C(=O)c2cccc(-c3cccc(C(=O)c4ccc(*)cc4)c3)c2)cc1 (repeat unit) , which is 123.00

Kindly note the recorded glass transition temperature for *C1C(=O)N(c2cc(Br)c(O[Si](C)(C)C(C)(C)C)c(Br)c2)C(=O)C1* (repeat unit) , which is 164.00

(I) *CCCCCCCCCCCCCCCCCCNC(=O)Cc1ccc(CC(=O)N*)cc1 (repeat unit)
(II) *Oc1ccc(S(=O)(=O)c2ccc(Oc3ccc(C(c4ccc(*)cc4)C(C)C)cc3)cc2)cc1 (repeat unit)
(III) *c1ccc(-c2ccc(-c3ccc([Si](*)(CCCC)CCCC)s3)s2)s1 (repeat unit)
Rank entries according to their glass transition temperature, from the largest number down. Reply: labels, ordered per the request. II, I, III
(II: 200.00 °C, I: 78.00 °C, III: 30.00 °C)

---

observation-type: glass transition temperature (°C)

Kindly note the recorded glass transition temperature for *Oc1cccc2ccc(Oc3ccc(NC(=O)c4cccc(C(=O)Nc5ccc(*)cc5)c4)cc3)cc12 (repeat unit) , which is 256.00

Kindly note the recorded glass transition temperature for *CCCCCCCCCCCCN1C(=O)c2ccc(-c3ccc(-c4ccc5c(c4)C(=O)N(*)C5=O)cc3)cc2C1=O (repeat unit) , which is 86.00

Kindly note the recorded glass transition temperature for *C(=O)OCCCCOC(=O)c1ccc(N2C(=O)c3ccc(*)cc3C2=O)cc1 (repeat unit) , which is 100.50

Kindly note the recorded glass transition temperature for *CCS* (repeat unit) [Poly(ethylene sulfide)] , which is -25.83

Kindly note the recorded glass transition temperature for *OCC(F)(F)C(F)(F)C(F)(F)COc1nc(F)c(F)c(OCC(F)(F)C(F)(F)C(F)(F)COc2c(F)c(*)nc(F)c2F)c1F (repeat unit) , which is -10.00

(I) *O[Si](C)(C)C#C[Si](C)(C)C#C[Si](C)(C)C#C[Si](C)(C)C#C[Si](C)(C)C#C[Si](C)(C)C#C[Si](*)(C)C (repeat unit)
(II) *O[Si](C)(C)c1ccc2ccc([Si](*)(C)C)cc2c1 (repeat unit)
(III) *Oc1ccc(-c2cc(-c3ccccc3)c(-c3ccc(OC(=O)c4ccc(C(*)=O)cc4-c4ccccc4)cc3)c(-c3ccccc3)c2-c2ccccc2)cc1 (repeat unit)
(IV) *CCCCCCCCCCCC(=O)Oc1ccc(OC(=O)c2ccc3c(c2)C(=O)N(*)C3=O)cc1 (repeat unit)
(V) *Cc1cccc(CNC(=O)CCC2(CCC(=O)N*)c3ccccc3-c3ccccc32)c1 (repeat unit)
Please list these in order of increasing glass transition temperature. Thank you! Reply: labels, ordered per the request. I, II, IV, V, III
(I: -12.60 °C, II: 26.00 °C, IV: 58.00 °C, V: 150.00 °C, III: 225.00 °C)

(A) *Oc1ccc(Oc2ccc(NC(=O)c3ccc(Oc4ccc(Oc5ccc(C(=O)Nc6ccc(*)cc6)cc5)cc4C)cc3)cc2)cc1C (repeat unit)
(B) *C(=O)OCCCCCCCCCCCCOC(=O)c1ccc(N2C(=O)c3ccc(*)cc3C2=O)cc1 (repeat unit)
I'm curious, which of these has a smaller glass transition temperature number: A or B ? Write the label of whichever entry you select. B
(B: 47.00 °C, A: 218.50 °C)

(I) *CCOCCOC(=O)NCCCCCCNC(=O)O* (repeat unit)
(II) *CCCCCC(=O)Oc1ccc(-c2ccc(OC(=O)c3ccc4c(c3)C(=O)N(*)C4=O)cc2)cc1 (repeat unit)
Response body: label of entry with the larger glass transition temperature; valid values I , II . Write the label of whichever entry you select. II

(P) *CCCC1(CCCNC(=O)c2cccc(C(=O)N*)c2)c2ccccc2-c2ccccc21 (repeat unit)
(Q) *Oc1ccc(C(C)(C)c2ccc(OC(=O)c3cccc(Oc4cccc(C(*)=O)c4)c3)cc2)cc1 (repeat unit)
Response body: label of entry with the larger glass transition temperature; valid values P , Q . Write the label of whichever entry you select. P

(A) *c1c(C)cc(C)c(N2C(=O)c3cccc(Oc4c(C)cc(Cc5cc(C)c(Oc6cccc7c6C(=O)N(*)C7=O)c(C)c5)cc4C)c3C2=O)c1C (repeat unit)
(B) *CCCCCCNC(=O)c1ccccc1-c1ccccc1C(=O)N* (repeat unit)
(C) *CCCCCCCCCCOC(=O)NNC(=O)CCCCCCCCC(=O)NNC(=O)O* (repeat unit)
(D) *CCCS(=O)(=O)CCCS(=O)(=O)CCCOC(=O)c1cccc(C(=O)O*)c1 (repeat unit)
Please list these in order of increasing glass transition temperature. Thank you! Reply: labels, ordered per the request. C, D, B, A
(C: 34.00 °C, D: 67.00 °C, B: 122.50 °C, A: 287.00 °C)

(1) *c1cccc(C(=O)Nc2ccc(Oc3ccc(Oc4ccc(NC(=O)c5cccc(N6C(=O)c7ccc(-c8cccc9c8C(=O)N(*)C9=O)cc7C6=O)c5)cc4)cc3)cc2)c1 (repeat unit)
(2) *CCCCCCc1nc2cc(NC(=O)CCCCCCCCC(=O)Nc3ccc4oc(*)nc4c3)ccc2o1 (repeat unit)
I'm curious, which of these has a smaller glass transition temperature number: 1 or 2 ? Write the label of whichever entry you select. 2
(2: 86.00 °C, 1: 268.00 °C)

(a) *CCC(c1ccccc1)C(*)c1ccccc1 (repeat unit)
(b) *Oc1ccc(CCNC(=O)c2cccc(C(*)=O)c2)cc1 (repeat unit)
(c) *c1ccc(Oc2ccc(-c3nc4ccc(-c5ccc6nc(*)c(-c7ccccc7)c(-c7ccccc7)c6c5)cc4c(-c4ccccc4)c3-c3ccccc3)cc2)cc1 (repeat unit)
(d) *Oc1ccc(CC(NC(=O)CCc2ccc(OC(=O)CCCCC(*)=O)cc2)C(=O)OC(C)C)cc1 (repeat unit)
Rank entries according to their glass transition temperature, from the largest number down. Reply: labels, ordered per the request. c, b, a, d

---

observation-type: glass transition temperature (°C)

Kindly note the recorded glass transition temperature for *O[Si](C)(C)CCC/N=C1\c2ccccc2/C(=N\CCC[Si](*)(C)C)c2c(O)ccc(O)c21 (repeat unit) , which is 7.50

Kindly note the recorded glass transition temperature for *Oc1c(Br)cc(C(C)(C)c2cc(Br)c(OC(=O)c3cccc(C(*)=O)c3)c(Br)c2)cc1Br (repeat unit) , which is 115.00

Kindly note the recorded glass transition temperature for */C=C/C1CC(*)C(F)(F)C1(F)OC(F)(F)C(F)(F)C(F)(F)F (repeat unit) , which is 77.00

Kindly note the recorded glass transition temperature for *CC(*)C(=O)OCCCC (repeat unit) [Poly(tert-butyl acrylate)] , which is -51.58

Kindly note the recorded glass transition temperature for *c1ccc2oc(-c3ccc(C(c4ccccc4)(c4ccc(-c5nc6cc(C(*)(c7ccccc7)C(F)(F)F)ccc6o5)cc4)C(F)(F)F)cc3)nc2c1 (repeat unit) , which is 330.00

(I) *CC(*)(C)C(=O)OCCCCCCOc1ccc(C(=O)Oc2ccc(/N=N/c3ccc(C)cc3)c3ccccc23)cc1 (repeat unit)
(II) *Oc1ccc(Oc2ccc(C(=O)c3ccc(C(=O)c4ccc(*)cc4)cc3)cc2)cc1 (repeat unit)
Response body: label of entry with the larger glass transition temperature; valid values I , II . Write the label of whichever entry you select. II

---

observation-type: glass transition temperature (°C)

Kindly note the recorded glass transition temperature for *c1ccc(Oc2ccc(-n3nccc3-c3ccc(-c4ccnn4*)cc3)cc2)cc1 (repeat unit) , which is 243.00

Kindly note the recorded glass transition temperature for *CC(*)c1cccc2ccccc12 (repeat unit) , which is 160.00

Kindly note the recorded glass transition temperature for *CC(*)C(=O)Nc1ccccc1Cl (repeat unit) , which is 63.00

Kindly note the recorded glass transition temperature for *CC(*)c1ccc(B(Oc2ccc(-c3ccc(OC)cc3)c3cccnc23)c2ccc(C(C)(C)C)cc2)cc1 (repeat unit) , which is 220.00

Kindly note the recorded glass transition temperature for *c1ccc(CCc2ccc(N3C(=O)C(=O)N(*)C3=O)cc2)cc1 (repeat unit) , which is 196.00

(P) *c1cccc(Oc2cccc(Oc3cccc(N4C(=O)c5ccc(Oc6ccc(Sc7ccc(Oc8ccc9c(c8)C(=O)N(*)C9=O)cc7)cc6)cc5C4=O)c3)c2)c1 (repeat unit)
(Q) *CCCCCCCCCCOc1ccc(/N=C/c2ccc(/C=N/c3ccc(O*)cc3C)cc2)c(C)c1 (repeat unit)
(R) *CC(CCCCCCCCCC)C(CCCCCCCCCC)COC(=O)c1ccc(C(=O)O*)cc1 (repeat unit)
Please list these in order of increasing glass transition temperature. Thank you! Reply: labels, ordered per the request. R, Q, P
(R: -38.00 °C, Q: 77.60 °C, P: 190.50 °C)
